# test-description: Oral bioavailability in cynomolgus monkey at 10 mg/kg administered via gavage measured upto 24 hrs by LC-MS/MS analysis
# Format: ADME, organism-based, Macaca fascicularis
# cond: in vivo

>  <given-smiles>
Cn1ncc(-c2ccc3c(=O)[nH]nc(CN)c3c2)c1-c1c(F)c(Cl)cc(OC2CC2)c1C#N

>  <measurement-units>
%

>  <bioavailability>
41

$$$$
>  <given-smiles>
Cn1ncc(-c2ccc3c(=O)[nH]nc(CN)c3c2)c1-c1c(F)cc2ccccc2c1C#N

>  <measurement-units>
%

>  <bioavailability>
28

$$$$

###

# test-description: Intrinsic clearance in mouse hepatocytes
# Type: ADME, cell-based, Hepatocyte
# cond: read-out: CLH
observed-property: CLint scaled

>  <given-smiles>
Cn1ncc(-c2ccc3c(=O)[nH]nc(CN)c3c2)c1-c1cccc(OC2CC2)c1C#N

>  <result-value>
237 mL/min/kg

$$$$
>  <given-smiles>
Cn1ncc(-c2ccc3c(=O)[nH]nc(CN)c3c2)c1-c1c(F)cccc1C#N

>  <result-value>
171 mL/min/kg

$$$$
>  <given-smiles>
Cn1ncc(-c2ccc3c(=O)[nH]nc(CN)c3c2)c1-c1cc(Cl)cc(OC2CC2)c1C#N

>  <result-value>
336 mL/min/kg

$$$$
>  <given-smiles>
Cn1ncc(-c2ccc3c(=O)[nH]nc(CN)c3c2)c1-c1ccccc1C#N

>  <result-value>
148 mL/min/kg

$$$$
>  <given-smiles>
Cn1ncc(-c2ccc3c(=O)[nH]nc(CN)c3c2)c1-c1ccc2ccccc2c1C#N

>  <result-value>
340 mL/min/kg

$$$$
>  <given-smiles>
Cn1ncc(-c2ccc3c(=O)[nH]nc(CN)c3c2)c1-c1sc2ccccc2c1C#N

>  <result-value>
280 mL/min/kg

$$$$
>  <given-smiles>
CCc1cccc(-c2c(-c3ccc4c(=O)[nH]nc(CN)c4c3)cnn2C)c1C#N

>  <result-value>
523 mL/min/kg

$$$$
>  <given-smiles>
Cn1ncc(-c2ccc3c(=O)[nH]nc(CN)c3c2)c1-c1c(F)cc2ccccc2c1C#N

>  <result-value>
255 mL/min/kg

$$$$
>  <given-smiles>
Cn1ncc(-c2ccc3c(=O)[nH]nc(CN)c3c2)c1-c1cccc(Cl)c1C#N

>  <result-value>
232 mL/min/kg

$$$$

###

Reported AUC(0-inf) is given for each of the following compounds.
# test-description: AUCinfinity in CD-1 mouse at 30 mg/kg, po administered via gavage measured upto 24 hrs by LC-MS/MS analysis
# Format: ADME, organism-based
# Design: route oral, dose 30 mg/kg, time <=24
# cond: in vivo

>  <given-smiles>
Cn1ncc(-c2ccc3c(=O)[nH]nc(CN)c3c2)c1-c1c(F)c(Cl)cc(OC2CC2)c1C#N

>  <AUC(0-inf)>
4850 ng·h/mL

$$$$
>  <given-smiles>
Cn1ncc(-c2ccc3c(=O)[nH]nc(CN)c3c2)c1-c1c(F)cc2ccccc2c1C#N

>  <AUC(0-inf)>
2730 ng·h/mL

$$$$

###

# tested-target: Protein arginine N-methyltransferase 5 (Homo sapiens, UniProt O14744)
# Sequence (O14744 whole entry): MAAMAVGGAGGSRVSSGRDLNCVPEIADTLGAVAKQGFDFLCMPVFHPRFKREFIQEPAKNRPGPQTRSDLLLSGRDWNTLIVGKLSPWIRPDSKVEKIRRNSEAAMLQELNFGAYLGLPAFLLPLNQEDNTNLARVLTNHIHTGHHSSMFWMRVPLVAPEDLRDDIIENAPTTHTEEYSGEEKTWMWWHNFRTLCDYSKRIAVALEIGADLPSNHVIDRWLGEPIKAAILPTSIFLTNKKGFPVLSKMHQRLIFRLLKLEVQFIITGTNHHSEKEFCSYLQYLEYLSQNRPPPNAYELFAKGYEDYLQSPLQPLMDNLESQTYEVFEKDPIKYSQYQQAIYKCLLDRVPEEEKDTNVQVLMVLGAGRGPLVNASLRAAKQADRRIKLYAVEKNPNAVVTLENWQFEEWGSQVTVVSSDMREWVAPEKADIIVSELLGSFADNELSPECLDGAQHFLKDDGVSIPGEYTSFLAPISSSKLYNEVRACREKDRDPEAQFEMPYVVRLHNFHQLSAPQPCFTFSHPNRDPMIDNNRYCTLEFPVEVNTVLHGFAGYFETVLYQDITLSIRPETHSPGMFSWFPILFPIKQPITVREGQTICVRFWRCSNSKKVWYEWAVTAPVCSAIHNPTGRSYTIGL
# test-description: Inhibition of PRMT5 methyltransferase activity in MTAP knockout human HCT-116 cells assessed as inhibition of PRMT5- mediated SDMA modification level incubated for 96 hrs by Western blot analysis
# Type: cell-based
pIC50: −log10 of the molar value.
Listed below: pIC50 values for each entry.

>  <given-smiles>
Cn1ncc(-c2ccc3c(=O)[nH]nc(CN)c3c2)c1-c1c(Cl)ccc(OC2CC2)c1C#N

>  <pIC50>
7.96

$$$$
>  <given-smiles>
Cn1ncc(-c2ccc3c(=O)[nH]nc(CN)c3c2)c1-c1cccc(Cl)c1C#N

>  <pIC50>
7.21

$$$$
>  <given-smiles>
COc1cccc(-c2c(-c3ccc4c(=O)[nH]nc(CN)c4c3)cnn2C)c1C#N

>  <pIC50>
7.21

$$$$
>  <given-smiles>
Cc1cccc(-c2c(-c3ccc4c(=O)[nH]nc(CN)c4c3)cnn2C)c1C#N

>  <pIC50>
7.00

$$$$
>  <given-smiles>
Cn1ncc(-c2ccc3c(=O)[nH]nc(CN)c3c2)c1-c1ccccc1C#N

>  <pIC50>
6.08

$$$$

Data origin, for the record: ChEMBL document CHEMBL5046262
